Molecular target: Sodium/glucose cotransporter 2 (Rattus norvegicus, UniProt P53792)
Sequence (P53792 whole entry): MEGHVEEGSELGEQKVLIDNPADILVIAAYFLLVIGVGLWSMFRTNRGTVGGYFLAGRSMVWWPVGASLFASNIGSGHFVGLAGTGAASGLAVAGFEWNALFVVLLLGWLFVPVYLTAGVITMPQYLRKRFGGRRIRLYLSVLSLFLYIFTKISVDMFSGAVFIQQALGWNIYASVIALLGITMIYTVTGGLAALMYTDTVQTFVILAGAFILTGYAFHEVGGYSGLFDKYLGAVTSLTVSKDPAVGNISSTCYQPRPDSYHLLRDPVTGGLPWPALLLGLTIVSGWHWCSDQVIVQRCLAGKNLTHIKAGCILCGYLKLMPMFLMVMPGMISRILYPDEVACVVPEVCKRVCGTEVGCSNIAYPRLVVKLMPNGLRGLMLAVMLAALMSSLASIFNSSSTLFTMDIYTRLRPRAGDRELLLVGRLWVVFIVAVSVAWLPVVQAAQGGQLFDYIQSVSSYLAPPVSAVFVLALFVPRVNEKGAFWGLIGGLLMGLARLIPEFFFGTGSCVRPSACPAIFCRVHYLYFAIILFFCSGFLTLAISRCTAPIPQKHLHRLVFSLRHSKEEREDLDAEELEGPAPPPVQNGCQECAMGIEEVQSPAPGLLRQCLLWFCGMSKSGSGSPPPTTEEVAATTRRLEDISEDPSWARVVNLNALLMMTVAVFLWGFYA
Test: Inhibition of SGLT2-mediated glucose uptake in rat NRK-52E cells assessed as reduction in glucose uptake preincubated with 33 mM glucose for 6 hrs followed by compound addition and measured after 24 hrs by fluorescence based microplate reader analysis
pIC50: −log10 of the molar value.
value kind: pIC50

compound	measured result
Cc1ccc([C@@H]2O[C@H](CO)[C@@H](O)[C@H](O)[C@H]2O)cc1Cc1ccc(-c2ccc(F)cc2)s1 [CANAGLIFLOZIN ANHYDROUS]	8.63
C[C@]12CC[C@H](O)CC1=CC[C@@H]1[C@@H]2CC[C@]2(C)c3c(cnc4nc5ccccc5n34)C[C@@H]12	8.54

====

System: NRK-52E
Assay: Cytotoxicity against rat NRK-52E cells assessed as reduction in cell viability at 1 to 50 uM pretreated with 33 mM glucose for 6 hrs followed by compound addition and measured after 24 hrs by Alamar blue dye based microplate reader analysis
Format: toxicity
Conditions: dose 1-50 µM
value kind: Activity

C[C@]12CC[C@H](O)CC1=CC[C@@H]1[C@@H]2CC[C@]2(C)c3c(cnc4nc5cc(Cl)ccc5n34)C[C@@H]12 Non-toxic
CC(=O)O[C@H]1CC[C@@]2(C)C(=CC[C@@H]3[C@@H]2CC[C@]2(C)c4c(cnc5cc(-c6ccc(Cl)cc6)nn45)C[C@@H]32)C1 Non-toxic
CC(=O)O[C@H]1CC[C@@]2(C)C(=CC[C@@H]3[C@@H]2CC[C@]2(C)c4c(cnc5cc(-c6ccc(Br)cc6)nn45)C[C@@H]32)C1 Non-toxic
